test system: Wolbachia pipientis; experiment: Anti-Wolbachia Cell-Based Screen; assay type: functional; set-up: scale not given: in the data most compounds retested in dose-response had high values; details: 5 µM
Hit rate of the full screen: of about 48,000 compounds, about 13,000 (27%) showed an effect of 50% or more. The list shows a part of the results.
observedProperty: Percent Effect (%)
Give just the numeric value; % need not be written.

Check out these entries, answers already filled in.
CCc1cnc(N)nc1NCc1ccc(OC)cc1OC :: -6.529
CC(NC(=O)NCc1cscn1)c1ccc(N2CCOCC2)cc1 (configuration not stated) :: -18.24

Problem: For the compound shown here, COCc1cccc(NC(=O)NCc2ncc(C)c(OC)c2C)c1 , give the reported Percent Effect.
Result: -10.08

Problem: Which Percent Effect value belongs to COc1ccc(CNc2cc(-c3nc(C)no3)ccn2)c(OC)c1 ?
Result: -6.518

Problem: Reported Percent Effect for COc1ccc(CNC(Cc2ccsc2)c2ccc(C)cn2)c(OC)c1 (configuration not stated) : what is it?
Result: 101.2

Problem: For the compound COc1ccncc1NCc1ccsc1 , what Percent Effect is on record?
Result: 15.23

Problem: Give the measured Percent Effect of Cc1noc(CCCNC(=O)C2CSCN2C(=O)C(C)(C)C)n1 (configuration not stated) .
Result: -2.864

Problem: Give its Percent Effect value. Item: Cc1nnc(CNC(C)c2cc(C)c(F)c(C)c2)s1 (configuration not stated)
Result: 61.57

Just for reference, ChEMBL document CHEMBL3988442 is where these values come from.
